Data origin: PubChem BioAssay AID624351

Test: coupled detection enzyme interference, dose response, artefact control for MgcRacGAP inhibitor project, biochemical, coupled enzyme counter-screen (AID 624351);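 also: signal is the ADP detection kit reading of free GDP without any GAP enzyme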
Conditions: ADP Hunter coupled enzyme counter-screen, fluorescence, no MgcRacGAP; series mostly up to 80 µM
The whole screen tested about 2,400 compounds, of which about 1,400 (58%) were called active.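 The calls were made as follows: active = inhibition of 30% or more at any tested dose; inconclusive = primary hits over the limit that were never retested; inactive = the rest.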 So high a share suggests a set chosen from earlier hits. The list shows a part of the results.
Outcome codes: T (active), F (inactive)

compound=Cc1ccn2c(NC3CCCC3)c(-c3ccncc3)nc2c1 class_assignment=T
compound="O=C(O)C1CSC(c2ccco2)N1 (stereo not drawn)" class_assignment=F
compound="COc1cccc(NS(=O)(=O)c2ccc3c(c2)C2C=CCC2C(c2ccc(C(=O)O)cc2)N3)c1 (stereo not drawn)" class_assignment=F
compound="CCOc1ccc(CNC2CCCc3ccccc32)cc1 (stereo not drawn)" class_assignment=F
compound=Nc1nc(N)c2[nH]c(=S)[nH]c2n1 class_assignment=F
compound="O=[N+]([O-])c1ccc(C2CC(c3ccccc3)=Nc3ccccc3S2)cc1 (stereo not drawn)" class_assignment=F
compound="OC(CNCC1COc2ccccc2O1)COCc1cccs1 (stereo not drawn)" class_assignment=F
compound=CCn1c2ccccc2c2cc(NC(=O)CNC)ccc21 class_assignment=F
compound=COc1cc(/C=c2\sc3n(c2=O)CCCN=3)ccc1O class_assignment=T
compound="COc1cc(/C=N/NC(=O)CC2C(=O)NN=C2C)ccc1O (stereo not drawn)" class_assignment=T
compound=COc1cccc(-c2ncc3ccccn23)c1 class_assignment=F
compound=C=CCN=c1scc(C)n1/N=C/c1ccc(O)c(O)c1 class_assignment=T
compound=C/C(=N\NC(=O)CSCc1ccccc1Cl)c1cc(O)ccc1O class_assignment=T
